Source listed as ChEMBL document CHEMBL1201862.

# Test system: UO-31
# assay_method_text: NCI tumour cell line growth inhibition, 48 h
The source made the active and inactive calls. No stated cut-off is given here; in the data, active = GI50 up to about 1.1 µM and inactive = higher.
Field 'call' accepts class 1 (active), class 0 (inactive)

compound	group
CCc1c(Cl)nc(Cl)nc1Cl	class 0
N#CC(NNC(=O)c1c(Cl)c(Cl)c(Cl)c(Cl)c1-c1nc2cc(C(=O)c3ccccc3)ccc2[nH]1)c1cccc(Oc2ccccc2)c1 (centres undefined)	class 0
CC(=O)O[C@@]1(C)[C@@H](C)C(=O)O[C@@H]2CCN3CC=C(COC(=O)[C@]1(C)O)[C@H]23	class 0
CC1=CC2CC(C)=C(CC[C@]3(C)CC[C@H]([C@@H](C)C(=O)O)OO3)C(C)(C)C2CC1 (some centres undefined)	class 1
N=C(N)Nc1nc2cc([N+](=O)[O-])ccc2[nH]1	class 0

Q. Which outcome was assigned to CCCC/C=C1/CCC(CN(C)C)C1=O (centres undefined) in this test?
A. class 0

Q. Query: recorded result category for C[N+](C)(C)CC(=O)N/N=C(\C(=O)Nc1ccc(Cl)cc1)C1C(=O)N(c2ccccc2)N=C1N (centres undefined) in this test
A. class 0

Q. Tell me the assay call for `O=C(O)c1cnccc1-c1cc(=O)[nH]n1-c1ccccc1` please.
A. class 0

Q. Called result for COc1ccccc1NC(=O)CC(=O)N1N=C(c2ccccc2)C(/N=N/c2ccc(Cl)cc2)C1=O (centres undefined)
A. class 0

----------
# Tested on: SF-268
# assay_method_text: NCI tumour cell line growth inhibition, 48 h
Activity calls are given as the source filed them. No stated cut-off is given here; in the data, active = GI50 up to about 1.1 µM and inactive = higher.
Form entry, call: pick from active, inactive

compound	study_target	group
O=[N+]([O-])c1ccc2c3c1[C@@H]1O[C@@H]1c1cccc(c1-3)[C@@H]1O[C@H]21	SF-268	inactive

Q. Which outcome was entered for the compound CCOC(=O)C(Cc1ccc(OC(=O)OC(C)(C)C)cc1)NC(=O)OC(C)(C)C (stereo not drawn) in this test?
A. inactive

Q. How did this test come out for COC1(C)Cc2c(c(C)c(O)c3c2C(=O)C=C(Cl)C3=O)O1 (stereo not drawn) ?
A. inactive

----------
# System: NCI/ADR-RES
# assay_method_text: NCI tumour cell line growth inhibition, 48 h
The source made the active and inactive calls. No stated cut-off is given here; in the data, active = GI50 up to about 1.1 µM and inactive = higher.
Return exactly one item of active, inactive

compound	group
Nc1cc(S(N)(=O)=O)ccc1SSc1ccc(S(N)(=O)=O)cc1N	inactive
OCC1(CNc2cc(Cl)ncn2)CCC1	inactive
NCCCCCCn1c(-c2ccc(Br)cc2)cs/c1=N\c1ccccc1	inactive

Alright, here's another compound for you.
Q. Hi, do you know how CCOC(=O)C1C(c2ccc3c(c2)OCO3)c2c(n[nH]c2O)CC1(O)OCC (stereo unspecified) came out in this test?
A. inactive

----------
For each of the molecules below, state its GI50.
# Test system: OVCAR-4
# assay_method_text: NCI tumour cell line growth inhibition, 48 h
Activity calls are given as the source filed them. Rule as the data show it: active = GI50 up to about 1.1 µM and inactive = higher.

Example cases with answers are listed next.
molecule	quantity_name	readout_value
O=C(O)C(Cc1ccccc1-c1ccccc1)C(=O)O	GI50	> 100 µM (inactive)
CN(C)CCNc1ccc2c(=O)n(CCN(C)C)c(=O)n3c4ccc([N+](=O)[O-])cc4c(=O)c1c23	GI50	0.301 µM (active)
CCOC(=O)N/N=C(/N)c1cccc([N+](=O)[O-])c1	GI50	> 100 µM (inactive)
CN(C)/C=C/C(=CC=[N+](C)C)/C=C/N(C)C.[O-][Cl+3]([O-])([O-])[O-]	GI50	> 100 µM (inactive)
COc1cccc(NC(=O)CC(=O)N2NC(C)C(/N=N/c3cccc(C(=O)O)c3)C2=O)c1 (stereo not given)	GI50	> 100 µM (inactive)
CCOCC(=O)N(C)c1cccc2c3c(n(C)c12)CCCCC3	GI50	> 100 µM (inactive)
CN(C)Cc1ccc(O)c(CN(C)C)n1	GI50	> 100 µM (inactive)
C/C(=N\NC(N)=S)c1cc(C)c(C)cc1C	GI50	30.9 µM (inactive)

Go through the items and report each one's GI50.
1. Nc1ccc2ncc(NCc3ccc(F)cc3)nc2c1
2. NC(CSC(=O)c1ccccc1)C(=O)O (stereo not given)
3. CCc1ccccc1NC(=O)/C(=N/O)C(C)=O
4. CC(C)(C)c1ccc(-c2nc3ccccc3c(=O)o2)cc1
5. CC(=O)OC1=CC2=CC[C@H]3[C@@H]4CCC(=O)[C@@]4(C)CC(=O)[C@]3(S)[C@@]2(C)CC1
6. CCOC(=O)C(Cc1ccc(OC(=O)OC(C)(C)C)cc1)NC(=O)OC(C)(C)C (stereo not given)
7. CC(=O)O[C@H]1C[C@H](O[C@H]2[C@@H](O)C[C@H](O[C@H]3[C@@H](O)C[C@H](O[C@H]4CC[C@@]5(C)[C@H](CC[C@@H]6[C@@H]5CC[C@]5(O)[C@@H](C7=CC(=O)OC7)CC[C@]65O)C4)O[C@@H]3C)O[C@@H]2C)O[C@H](C)[C@H]1O[C@@H]1O[C@H](CO)[C@@H](O)[C@H](O)[C@H]1O

A.
["92.3 µM (inactive)", "> 100 µM (inactive)", "> 100 µM (inactive)", "35.7 µM (inactive)", "57.8 µM (inactive)", "> 100 µM (inactive)", "0.497 µM (active)"]

# batch size: 4; output GI50 per entry
1. O=C(Nc1cc2cc([N+](=O)[O-])ccc2oc1=O)c1cccs1
2. Oc1ccc(/C=C\c2nnc(/C=C\c3ccc(O)c(O)c3)s2)cc1O
3. Cn1c(=O)oc2cc(Br)ccc21
4. CCOP(=O)(CN1CCNCCN(CP(=O)(OCC)OCC)CC1)OCC

A.
["43.6 µM (inactive)", "4.34 µM (inactive)", "> 100 µM (inactive)", "> 100 µM (inactive)"]

Q. Look up GI50 of `O=c1c(F)cn(Cc2c(Cl)cccc2Cl)c(=O)n1Cc1c(Cl)cccc1Cl` and report it.
A. 17.1 µM (inactive)
